Subject Of Test: Gal(b1-4)GlcNAc(b1-6)GalNAc
Assay Summary: glycan array binding signal (z-score within array); higher = stronger binding
Settings: glycan notation: IUPAC condensed, linker removed
About 410 targets per protein were measured; listed, in parts, are those with the strongest signals and a random draw of the rest.
# glycan array binding signal (z-score) listing for each entry below
Simply state the number, no unit and no words.

Ask | Using the record for MGL6A (Homo sapiens) (protein) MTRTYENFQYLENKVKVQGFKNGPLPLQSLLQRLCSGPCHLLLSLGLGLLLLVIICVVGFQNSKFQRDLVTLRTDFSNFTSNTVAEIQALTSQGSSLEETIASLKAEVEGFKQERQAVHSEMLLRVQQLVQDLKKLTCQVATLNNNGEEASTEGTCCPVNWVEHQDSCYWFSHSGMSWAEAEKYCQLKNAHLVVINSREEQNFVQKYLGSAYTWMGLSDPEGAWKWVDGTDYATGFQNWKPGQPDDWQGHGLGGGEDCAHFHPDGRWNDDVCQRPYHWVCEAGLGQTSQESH , report its glycan array binding signal (z-score).
Reply | 4.67

Ask | Next binder: Gal 8 (Mus musculus), Q9JL15 (protein) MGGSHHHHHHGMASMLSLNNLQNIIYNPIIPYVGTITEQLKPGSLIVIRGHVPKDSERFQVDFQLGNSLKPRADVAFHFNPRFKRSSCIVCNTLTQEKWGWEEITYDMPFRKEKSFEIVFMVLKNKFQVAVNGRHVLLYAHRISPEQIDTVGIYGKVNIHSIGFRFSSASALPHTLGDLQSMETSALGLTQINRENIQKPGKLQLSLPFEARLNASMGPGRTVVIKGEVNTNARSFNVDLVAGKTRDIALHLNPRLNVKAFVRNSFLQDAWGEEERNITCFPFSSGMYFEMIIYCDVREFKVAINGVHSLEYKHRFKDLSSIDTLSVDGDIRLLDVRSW
Reply | -0.214
